experiment: Anticancer activity against prostate cancer cells; assay type: functional; conditions: Homo sapiens, Cancer cell lines
MEASURED_ENDPOINT: GI50 (nM)
Value expressed in nM; do not type the unit.

>>> obs_value("O=C(c1ccc2ccccc2c1)c1c(C(F)(F)F)[n+]([O-])c2cc(C(F)(F)F)ccc2[n+]1[O-]")
1510
>>> obs_value("O=C(c1ccco1)c1c(C(F)(F)F)nc2cc(C(F)(F)F)ccc2[n+]1[O-]")
44700

query: Using the record for O=C(c1cccs1)c1c(C(F)(F)F)[n+]([O-])c2cc(C(F)(F)F)ccc2[n+]1[O-] , state its measured GI50.
result: 150

query: Using the record for O=C(c1ccco1)c1c(C(F)(F)F)[n+]([O-])c2cc(F)c(F)cc2[n+]1[O-] , state its measured GI50.
result: 420

query: Using the record for O=C(c1ccccc1)c1c(C(F)(F)F)[n+]([O-])c2cc(C(F)(F)F)ccc2[n+]1[O-] , state its measured GI50.
result: 1320

query: Using the record for O=C(c1ccco1)c1nc2cc(C(F)(F)F)ccc2[n+]([O-])c1C(F)(F)F , state its measured GI50.
result: 51900

query: Using the record for O=C(c1ccc2ccccc2c1)c1c(C(F)(F)F)[n+]([O-])c2ccc(C(F)(F)F)cc2[n+]1[O-] , state its measured GI50.
result: 570

====

assay: Anticancer activity against melanoma cells; type: functional; settings: Homo sapiens, Melanoma cell
MEASURED_ENDPOINT: GI50 (nM)
Value expressed in nM; do not type the unit.

Examples from the recorded data:
>>> obs_value("O=C(c1cccs1)c1c(C(F)(F)F)[n+]([O-])c2cc(Cl)c(Cl)cc2[n+]1[O-]")
940
>>> obs_value("O=C(c1ccc2ccccc2c1)c1c(C(F)(F)F)[n+]([O-])c2cc(C(F)(F)F)ccc2[n+]1[O-]")
1480
>>> obs_value("O=C(c1ccco1)c1c(C(F)(F)F)[n+]([O-])c2ccc(C(F)(F)F)cc2[n+]1[O-]")
1110
>>> obs_value("O=C(c1ccccc1)c1c(C(F)(F)F)[n+]([O-])c2cc(C(F)(F)F)ccc2[n+]1[O-]")
1230
>>> obs_value("O=C(c1ccco1)c1c(C(F)(F)F)nc2ccc(C(F)(F)F)cc2[n+]1[O-]")
31500

query: Using the record for O=C(c1cccs1)c1c(C(F)(F)F)[n+]([O-])c2cc(F)c(F)cc2[n+]1[O-] , state its measured GI50.
result: 390

query: Using the record for O=C(c1ccco1)c1c(C(F)(F)F)[n+]([O-])c2ccccc2[n+]1[O-] , state its measured GI50.
result: 670

query: Using the record for O=C(c1cccs1)c1c(C(F)(F)F)[n+]([O-])c2cc(C(F)(F)F)ccc2[n+]1[O-] , state its measured GI50.
result: 330

query: Using the record for O=C(c1ccco1)c1c(C(F)(F)F)[n+]([O-])c2cc(F)c(F)cc2[n+]1[O-] , state its measured GI50.
result: 560

query: Using the record for O=C(c1cccs1)c1c(C(F)(F)F)[n+]([O-])c2ccccc2[n+]1[O-] , state its measured GI50.
result: 1390

query: Using the record for O=C(c1ccc2ccccc2c1)c1c(C(F)(F)F)[n+]([O-])c2ccc(Cl)cc2[n+]1[O-] , state its measured GI50.
result: 1230

query: Using the record for O=C(c1cccs1)c1c(C(F)(F)F)[n+]([O-])c2ccc(C(F)(F)F)cc2[n+]1[O-] , state its measured GI50.
result: 900

query: Using the record for O=C(c1ccco1)c1c(C(F)(F)F)[n+]([O-])c2cc(C(F)(F)F)ccc2[n+]1[O-] , state its measured GI50.
result: 860
